assay: Mouse plasma protein binding; assay type: in vitro ADME; details: mouse, mouse plasma, pH 7.4, % Bound R2, Mouse Plasma, replicate 2, 4 h at 37 °C
Endpoint name: fraction unbound at 4 h, 5 µM

Identify the reported fraction unbound at 4 h, 5 µM for the following entry. CC(=O)CC(c1ccccc1)c1c(O)c2ccccc2oc1=O (stereo not shown) [Warfarin, reference compound]
0.067

====

experiment: Human plasma protein binding; format: in vitro ADME; conditions: human, human plasma, pH 7.4, % Bound R2, Human Plasma, replicate 2, 4 h at 37 °C
Endpoint name: fraction unbound at 4 h, 5 µM
Form rule: numeric answer, no unit written next to it.

Give me measured fraction unbound at 4 h, 5 µM, please, for this compound: CC(=O)CC(c1ccccc1)c1c(O)c2ccccc2oc1=O (stereo not shown) [Warfarin, reference compound]
0.015

====

The compounds listed here are annotated with their maximum drug effect (Emax).
biological target: 5-HT1A (Homo sapiens); assay: 5-HT1A-mediated Gi1 activation, BRET; format: cell-based; details: 5-HT1A-mediated activation of Gi1, BRET

Would you please look over these solved cases?
INSERT INTO assay_data (compound, endpoint_name, measured_value) VALUES
  ('O=C1CC2(CCCC2)CC(=O)N1CCCCN1CCN(c2ncccn2)CC1 [buspirone, reference compound]', 'maximum drug effect (Emax)', '93.4 % of 5-HT'),
  ('N#Cc1ccc2[nH]cc(CCCCN3CCN(c4ccc5oc(C(N)=O)cc5c4)CC3)c2c1 [vilazodone, reference compound]', 'maximum drug effect (Emax)', '97.4 % of 5-HT'),
  ('COc1ccc2[nH]cc(CCN3CCCC3)c2c1F', 'maximum drug effect (Emax)', '102.8 % of 5-HT');

Proceeding to the next compound to report its maximum drug effect (Emax).
Check the records and state maximum drug effect (Emax) for O=C1CCc2ccc(OCCCCN3CCN(c4cccc(Cl)c4Cl)CC3)cc2N1 [aripiprazole, reference compound]
77.1 % of 5-HT

====

experiment: Mouse brain tissue binding; assay type: in vitro ADME; details: mouse, mouse brain tissue, pH 7.4, % Unbound
Endpoint name: fraction unbound at 4 h, 5 µM
Reply with just the number.

Recall and state the measured fraction unbound at 4 h, 5 µM for NC(=O)N1c2ccccc2C=Cc2ccccc21 [Carbamazepine, reference compound] .
0.118

====

target: 5-HT2A (Homo sapiens, UniProt P28223); test: 5-HT2A-mediated Gq activation, BRET; settings: read-out: Gq BRET EC50; 5-HT2A-mediated Gq activation
Sequence (P28223 whole entry): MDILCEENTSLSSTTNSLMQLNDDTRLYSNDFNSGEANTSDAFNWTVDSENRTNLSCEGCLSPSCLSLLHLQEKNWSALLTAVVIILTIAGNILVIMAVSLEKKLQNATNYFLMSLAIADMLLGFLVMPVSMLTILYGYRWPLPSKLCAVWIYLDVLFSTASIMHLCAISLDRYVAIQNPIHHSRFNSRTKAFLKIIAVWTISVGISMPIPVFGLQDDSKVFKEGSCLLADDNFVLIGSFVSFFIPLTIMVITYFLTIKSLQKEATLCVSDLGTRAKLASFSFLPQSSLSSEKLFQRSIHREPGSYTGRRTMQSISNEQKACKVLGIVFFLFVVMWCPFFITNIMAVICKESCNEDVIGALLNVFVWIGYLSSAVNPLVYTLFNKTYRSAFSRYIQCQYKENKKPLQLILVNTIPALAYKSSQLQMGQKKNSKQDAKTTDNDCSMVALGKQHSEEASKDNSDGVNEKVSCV
Endpoint name: pEC50
pEC50 field: float, defined as -log10 of concentration (mol/L).

Read off the recorded pEC50 for COc1ccc2[nH]cc(CCN3CCCC3)c2c1F [4-F,5-MeO-PyrT]
6.52

====

Target: 5-HT1A (Homo sapiens)
Sequence (P08908 1-422): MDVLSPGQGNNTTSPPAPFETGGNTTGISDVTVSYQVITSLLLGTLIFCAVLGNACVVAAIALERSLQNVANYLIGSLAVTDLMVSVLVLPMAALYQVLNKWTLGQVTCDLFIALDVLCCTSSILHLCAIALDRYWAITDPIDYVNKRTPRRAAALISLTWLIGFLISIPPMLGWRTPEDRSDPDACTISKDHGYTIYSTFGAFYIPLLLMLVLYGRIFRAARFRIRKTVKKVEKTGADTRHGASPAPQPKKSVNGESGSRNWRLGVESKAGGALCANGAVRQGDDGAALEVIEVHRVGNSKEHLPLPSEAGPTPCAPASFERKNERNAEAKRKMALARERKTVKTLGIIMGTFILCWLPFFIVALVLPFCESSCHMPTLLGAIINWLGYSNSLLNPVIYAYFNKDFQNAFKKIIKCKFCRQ
Assay: 5-HT1A-mediated Gi1 activation, BRET
Conditions: read-out: Gi BRET EC50; 5-HT1A-mediated Gi1 activation, HEK293-T cells
Please assign class 0 whenever EC50 is at or above 30 nM, and class 1 whenever it is below.

Examples with answers:
INSERT INTO results (smiles_input, class_assignment) VALUES
  ('COc1ccc2[nH]cc(CCN3CC=CC3)c2c1F', 'class 1'),
  ('COc1ccc2[nH]cc(CCN3CCCCC3)c2c1', 'class 0');

Please state whether EC50 is below 30 nM for `COc1ccc2[nH]cc(CCN3CCCC3)c2c1`
class 1

Given the entry `COc1ccc2[nH]cc(CCN3CCCC3)c2c1F` , would its reported EC50 be below 30 nM?
class 1

In plain terms, does `CCN(CC)CCc1c[nH]c2ccc(OC)cc12` come in under 30 nM for EC50?
class 0

Find out if reported EC50 for `COc1ccc2[nH]cc(CCN3CC=CC3)c2c1` is less than 30 nM
class 1

I'd appreciate it if you could check whether `CCN(C)CCc1c[nH]c2ccc(OC)cc12` has EC50 smaller than 30 nM.
class 1

Hello, the source for this data is paper PMC11152992, in case you need it.
